# Test system: OVCAR-5 ovarian
# experimental details: NCI tumour cell line growth inhibition, 48 h
observable: TGI

Challenge: Reported TGI for OVCAR-5 ovarian, given CCO/C=N/C1=C(C#N)SC2=N/C(=C\c3ccccc3)C(=O)N21 ?
Response given: > 100 µM

Challenge: What measured TGI is associated with CCOC(=O)c1cccc(NC(=O)CI)c1 on OVCAR-5 ovarian?
Response given: 3.07 µM

Challenge: Provide value of TGI for this record tested with OVCAR-5 ovarian: CC[C@@]1(O)C(=O)OCc2c1cc1n(c2=O)Cc2c-1nc1ccccc1c2/C=N/NC(=O)c1ccc(N)cc1
Response given: > 100 µM

Challenge: Fill in the recorded TGI for this compound, with OVCAR-5 ovarian as test system: COc1cc2c(c(OC)c1OC)-c1ccc(SC)cc1C(O)CC2 (configuration not stated)
Response given: > 100 µM

Challenge: Fill in the recorded TGI for this compound, with OVCAR-5 ovarian as test system: O=[N+]([O-])c1cc(Cl)cnc1Br
Response given: 9.48 µM

Challenge: Identify the measured TGI of O=C1CC(NCc2ccccc2)c2c(Cl)sc(Cl)c21 (configuration not stated) for OVCAR-5 ovarian.
Response given: > 100 µM

Challenge: Write down the reported TGI of CCOc1ccc(N/C(=C(/C(Cl)=C(/Cl)NC(C)(C)C)[N+](=O)[O-])n2nnc3ccccc32)cc1 , test system: OVCAR-5 ovarian.
Response given: > 100 µM
